The measurements presented in this section are drawn from the supplement of paper PMC10567573.

Task for the reader: assign each of the following variants its reported protein stability index.
B1: DLC1 (parent)
chain: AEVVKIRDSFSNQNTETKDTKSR

Variants of: B1
experiment-notes: protein stability index of a GFP-peptide fusion (GPS, HEK-293T) (PSI 1-6); higher = more stable;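 also: lentivirally expressed fusions sorted by FACS into six bins by GFP to DsRed ratio, PSI derived from sequencing read proportions per bin multiplied by bin number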
cond: c terminus: native
The response must contain the number and no unit.

Reported protein stability index of AEVVKIRDDFSNQNTETKDTKSR [S9D] : 2.27

Reported protein stability index of AEVVKIRESFSNQNTETKDTKSR [D8E] : 2.92

Reported protein stability index of AEVMKIRDSFSNQNTETKDTKSR [V4M] : 2.05

Reported protein stability index of AEVVKIRDSFSNQNTETKMTKSR [D19M] : 1.95

Reported protein stability index of AEVVKIRDSFSNQNTETKDTKKR [S22K] : 2.92

Reported protein stability index of AEVVKIIDSFSNQNTETKDTKSR [R7I] : 2.52

Reported protein stability index of AEVVKIRDSFSNQNTETKDFKSR [T20F] : 1.36

Reported protein stability index of AESVKIRDSFSNQNTETKDTKSR [V3S] : 1.95

Reported protein stability index of ASVVKIRDSFSNQNTETKDTKSR [E2S] : 2.75

Reported protein stability index of AEVVIIRDSFSNQNTETKDTKSR [K5I] : 2.02

Reported protein stability index of AEVVKIRDSFSNQNTEIKDTKSR [T17I] : 2.41

Reported protein stability index of AEVVKIRDSFGNQNTETKDTKSR [S11G] : 2.36

Reported protein stability index of AEVVKIHDSFSNQNTETKDTKSR [R7H] : 2.21

Reported protein stability index of AEVVKIRDSFSNQNTWTKDTKSR [E16W] : 1.95

Reported protein stability index of AEVVKIRDGFSNQNTETKDTKSR [S9G] : 2

Reported protein stability index of AEVVKIRDSFSNQNTETKDTKSW [R23W] : 3.23

Reported protein stability index of QEVVKIRDSFSNQNTETKDTKSR [A1Q] : 3.03

Reported protein stability index of AEVCKIRDSFSNQNTETKDTKSR [V4C] : 2.3

Reported protein stability index of AEVVKIRDSFSNQNTETKDLKSR [T20L] : 2.71

Reported protein stability index of AEVVKIRDSFSNQNFETKDTKSR [T15F] : 2.36

Reported protein stability index of AEVVKIRDSFSNQNTETKDTASR [K21A] : 5.24

Reported protein stability index of AEVVKIRDSFSNQNTETDDTKSR [K18D] : 1.39

Reported protein stability index of IEVVKIRDSFSNQNTETKDTKSR [A1I] : 2.06

Reported protein stability index of AEVVKIRDSFSNQNNETKDTKSR [T15N] : 2.52

Reported protein stability index of AEVVKIRDSFSNQNTETKETKSR [D19E] : 2.31

Reported protein stability index of AEVVKIRDSFHNQNTETKDTKSR [S11H] : 2.61

Reported protein stability index of AEVVKIRDSFSNQNTETKDEKSR [T20E] : 1.64

Reported protein stability index of AEVVKIRDSFSNQNTETKDNKSR [T20N] : 3.98
